Tested on: SK-MEL-2 melanoma
ASSAY_PROCEDURE: NCI tumour cell line growth inhibition, 48 h
RECORDED_ENDPOINT: log10 TGI (log10 of the value in µM)
Values below are the log10 of the recorded TGI, with µM as the unit.

Some compounds with known log10 TGI results, for comparison:
1) O=c1c2c3c(sc2n2c(CCl)nnc2n1Cc1ccccc1)CCCC3 :: 0.47
2) C=C(C)C(=O)OC1C[C@H](COC(C)=O)C2CC=C(C)C2C2OC(=O)C(=C)[C@H]12 (stereo partly specified) :: 1.20
3) CCCCCCC(C)c1ccc2c(c1)C(=O)c1nc3ccncc3c(=O)n1-2 (stereo unspecified) :: 1.27
4) COc1cc(/C=C2\CCC(C)C3=C(c4cc(OC)c(OC)c(OC)c4)C(C#N)=C(N)OC32)cc(OC)c1OC (stereo unspecified) :: 0.65

// next entry
Fill blank: measured log10 TGI of the compound COc1ccc2c(c1)CC[C@@H]1C2CC[C@]2(C)C(=O)N(CCN3CCCC3)C(=O)CC12 (stereo partly specified) is ____. 1.51

----------
System: A549 NSCLC
ASSAY_PROCEDURE: NCI tumour cell line growth inhibition, 48 h
RECORDED_ENDPOINT: GI50

1) Cc1cc(C)c(S(=O)(=O)N2CCN(c3cc4c(cc3F)c(=O)c(C(=O)O)cn4C3CC3)CC2)c(C)c1 :: 2230 nM

Fill blank: measured GI50 of the molecule COc1cc2c3c(n(CCCNCCCNCCCn4c5c(c6cc(OC)c(OC)cc6c4=O)C(=O)c4ccccc4-5)c(=O)c2cc1OC)-c1ccccc1C3=O is ____. 12700 nM

Fill blank: measured GI50 of the molecule COc1ccc(NC(=O)c2sc3nc(C)c(C(=O)/C=C/c4ccccc4)cc3c2N)cc1 is ____. 749 nM

Fill blank: measured GI50 of the molecule CC1=C2[C@H]3OC(=O)[C@@H](C)[C@@H]3CC[C@@]2(C)C=CC1=O is ____. > 100000 nM

----------
Tested on: BT-549 breast
ASSAY_PROCEDURE: NCI tumour cell line growth inhibition, 48 h
RECORDED_ENDPOINT: TGI (µM)
Provide only the numeric value, understood in µM.

Fill blank: measured TGI of the compound COC(O)C(=O)c1c2c(cc3c1CCC3)CCCC2 (stereo unspecified) is ____. 6.41

Fill blank: measured TGI of the compound CCN1C(Cl)=NS(=O)(=O)c2ccccc21 is ____. 44

Fill blank: measured TGI of the compound CCOC1c2cc(OC)c(OC)cc2-c2ccc3ccccc3c2N1C (stereo unspecified) is ____. 28.6

----------
# TGI per record follows
Test system: OVCAR-3 ovarian
ASSAY_PROCEDURE: NCI tumour cell line growth inhibition, 48 h

Some compounds with known TGI results, for comparison:
1) CCCCCc1c(Cl)nc(Cl)nc1Cl :: 30.8 µM
2) Cc1ccnc2[nH]c(-c3cccc4ccccc34)cc(=O)c12 :: 0.0115 µM
3) COc1cc2c(cc1OCCCCOc1cc3nc(C)nc(Cl)c3cc1OC)N=C[C@@H]1CCCN1C2=O :: 4.7 µM
4) N#Cc1ccccc1C#C/C=C\C#Cc1cccs1 :: 34.2 µM
5) CCN(CC)C(=O)c1c(Cl)cc(N(CC)CC)oc1=O :: > 100 µM
6) CCOC(=O)CC1c2ccc(O)cc2OC(=O)C1c1ccc(N)cc1 (configuration not stated) :: > 100 µM

Fill blank: measured TGI of the compound Cc1cc(Br)ccc1NC1=CC(=O)C(=O)c2ccccc21 is ____. > 100 µM

Fill blank: measured TGI of the compound O=C(CC1(O)C(=O)N(Cc2ccccc2)c2ccc(Br)cc21)c1ccc(C(=O)NCC2CCC3(CC2)OOC2(CCCCC2)OO3)cc1 (configuration not stated) is ____. 1.52 µM

----------
Tested on: EKVX NSCLC
ASSAY_PROCEDURE: NCI tumour cell line growth inhibition, 48 h
# TGI per record follows

Some compounds with known TGI results, for comparison:
1) COc1ccc(NC(=O)c2sc3nc(C)c(C(=O)/C=C/c4ccccc4)cc3c2N)cc1 :: 8.85 µM
2) Nc1ncc2ccc3c(ccn3C3CC(O)C(CO)O3)c2n1 (stereo unspecified) :: > 100 µM
3) Cc1ccncc1N1CCN(c2ccnc(Cl)c2)C1=O :: > 100 µM

Fill blank: measured TGI of the compound O=S1[C@H](c2ccccc2)c2c(-c3ccccc3)sc(-c3ccccc3)c2[C@@H]1c1ccccc1 (stereo partly specified) is ____. > 100 µM

Fill blank: measured TGI of the compound COc1cccc(C2SCC(=O)N2c2ccc(-c3ccc(-n4c(-c5ccccc5)nc5ccccc5c4=O)cc3)cc2)c1OC (stereo unspecified) is ____. > 100 µM

Fill blank: measured TGI of the compound CCOC(=O)C(NC(=O)CC)(C(F)(F)F)P(=O)(OCC)OCC (stereo unspecified) is ____. > 100 µM

Fill blank: measured TGI of the compound C[N+](C)(C)CC1CCc2ccccc2C1=O (stereo unspecified) is ____. 18.2 µM

Fill blank: measured TGI of the compound Cn1ccnc1Cn1cc(-c2cccc(-c3cn[nH]c3)c2)cn1 is ____. 99.8 µM

Fill blank: measured TGI of the compound CC(C)=CCc1ccc2[nH]c3c(c2c1)C(=O)C(=O)C(C)=C3C(O)C(C)O (stereo unspecified) is ____. 30.1 µM

Fill blank: measured TGI of the compound Cc1ccc(C2C(Cl)C(=O)N2n2cnc3ccccc3c2=O)cc1 (stereo unspecified) is ____. > 100 µM

Fill blank: measured TGI of the compound CCOC(=O)CC1c2ccc(O)cc2OC(=O)C1c1ccc(N)cc1 (stereo unspecified) is ____. > 100 µM

----------
Test system: SN12C renal
ASSAY_PROCEDURE: NCI tumour cell line growth inhibition, 48 h
# TGI per record follows

Could you share what TGI was measured for COc1ccc(Nc2nc(C#N)c(N)s2)cc1 , tested on SN12C renal? > 100 µM

----------
System: SN12C renal
ASSAY_PROCEDURE: NCI tumour cell line growth inhibition, 48 h
# TGI per record follows

Some compounds with known TGI results, for comparison:
1) Cn1cc(-c2ccc(-c3cn(C)c4ncccc34)[nH]2)c2cccnc21 :: > 100 µM
2) CC(C)(C)c1ccc(-n2c3nc(=O)n(-c4ccccc4C(F)(F)F)c(=O)c-3cc3ccccc32)cc1 :: 59.1 µM

Fill blank: measured TGI of the compound COc1cccc(NC(=O)c2c(SC)c(C#N)c(=O)n(N)c2N)c1 is ____. > 100 µM

Fill blank: measured TGI of the compound CC(C)(C)c1cc(COc2cc(COc3ccc(-c4c5c(nc6c4CCc4ccc(-c7c8ccccc8nc8ccccc78)cc4-6)-c4cc(-c6c7ccccc7nc7ccccc67)ccc4CC5)cc3)cc(OCc3cc(C(C)(C)C)cc(C(C)(C)C)c3)c2)cc(C(C)(C)C)c1 is ____. > 100 µM

Fill blank: measured TGI of the compound COc1ccc(C(=O)/C=C/c2ccc(OCc3ccc(Cl)cc3)cc2)cc1OC is ____. > 1000 µM

Fill blank: measured TGI of the compound O=[N+]([O-])c1ccc(/C(=C\c2ccccc2)Cn2ccnc2)cc1 is ____. > 100 µM

Fill blank: measured TGI of the compound CC1=C2[C@H]3OC(=O)[C@@H](C)[C@@H]3CC[C@@]2(C)C=CC1=O is ____. > 100 µM

Fill blank: measured TGI of the compound c1ccc2c(c1)Sc1ccccc1N2CC1CN2CCC1CC2 (centres undefined) is ____. 23.7 µM

----------
Tested on: RXF 393 renal
ASSAY_PROCEDURE: NCI tumour cell line growth inhibition, 48 h
RECORDED_ENDPOINT: TGI

1. Cc1ccc(-n2c(C)n[nH]c2=O)cc1 :: > 100 µM
2. COc1ccc(OC)c(Nc2nc3ccccc3c3c2-c2ccc(OC)cc2C3=O)c1 :: > 100 µM
3. O=C(/C=C/c1ccc(OCc2ccccc2)c(OCc2ccccc2)c1)OCc1ccccc1 :: > 100 µM
4. O=S(=O)(/N=C(\NO)Nc1ccc(Cl)cc1)c1cc2ccccc2o1 :: 95 µM
5. CO[C@@H]1[C@H](O)CC[C@]2(CO2)[C@H]1[C@@]1(C)O[C@@H]1CC=C(C)C :: > 200 µM

Fill blank: measured TGI of the compound CC(=O)N(C)C=C1C(=O)N(C)C(=O)N(C)C1=O is ____. > 100 µM

Fill blank: measured TGI of the compound CO/N=C(\COc1ccc2c(=O)cc(-c3ccccc3)oc2c1)c1ccc(F)cc1 is ____. 87.5 µM

----------
# TGI per record follows
Tested on: RPMI-8226 leukemia
ASSAY_PROCEDURE: NCI tumour cell line growth inhibition, 48 h

1) CO/N=C(\COc1ccc2c(=O)cc(-c3ccccc3)oc2c1)c1ccc(F)cc1 :: > 100 µM
2) CCOC(=O)C1C=C1C(C)(C)O (stereo not drawn) :: > 10 µM
3) O=C(c1c(Cl)cc(Cl)cc1Cl)N(Cc1cccnc1)C(=S)N(Cc1cccnc1)C(=O)c1c(Cl)cc(Cl)cc1Cl :: > 100 µM
4) O=C1CCC(=O)N1CNc1cccc(NCN2C(=O)CCC2=O)c1 :: 46.1 µM
5) Oc1cccc2cc(Cl)cnc12 :: 61.6 µM

Fill blank: measured TGI of the compound C=CCN1C(=O)C(=O)N(CC=C)C(=O)C1=O is ____. > 100 µM

Fill blank: measured TGI of the compound Nc1c(C(=O)Nc2ccccc2)sc2nc3c(cc12)C(O)CCC3 (stereo not drawn) is ____. > 100 µM

Fill blank: measured TGI of the compound C=CCCCC(=O)CCC(=O)OCC1O[C@@H](O[C@@H]2C(O)[C@@H](OC(C)=O)C(C)O[C@H]2O[C@H](CC=C)CCCCC)C(O)[C@@H](OC(=O)/C(C)=C/C)[C@@H]1OC(=O)/C=C/c1ccccc1 (stereo partly drawn) is ____. 3.26 µM

Fill blank: measured TGI of the compound O=C(CCl)Nc1ccc2c(Nc3cc(O)ccc3Cl)ncnc2c1 is ____. 7.66 µM

Fill blank: measured TGI of the compound COc1ccc(OC)c(Nc2nc3ccccc3c3c2-c2ccc(OC)cc2C3=O)c1 is ____. > 100 µM

Fill blank: measured TGI of the compound COc1cc(C(=O)/C=C/c2cc(-c3cc(OC)c(OC)c(OC)c3)n[nH]2)cc(OC)c1OC is ____. 2.06 µM

Fill blank: measured TGI of the compound Cc1noc(NS(=O)(=O)c2ccc(NC(=O)c3ccc4[nH]c5ccccc5c(=O)c4c3)cc2)c1C is ____. > 100 µM

Fill blank: measured TGI of the compound N=C(c1ccc(-c2cn3cc(C(=N)N4CCCC4)ccc3n2)cc1)N1CCCC1 is ____. > 100 µM

Fill blank: measured TGI of the compound O=c1c2ccccc2sc2nc(CCl)nn12 is ____. > 100 µM

Fill blank: measured TGI of the compound O=C(Cc1nc2cccnc2nc1/C=C(\O)c1ccccc1)c1ccccc1 is ____. 29 µM

Fill blank: measured TGI of the compound CC(=O)OCCOCn1cc(C=O)c2ccccc21 is ____. > 100 µM

Fill blank: measured TGI of the compound CO/C(N)=C(\C#N)N=Cc1ccccc1 is ____. > 100 µM

Fill blank: measured TGI of the compound O=C(/C=C/c1ccc(OCc2ccccc2)c(OCc2ccccc2)c1)OCc1ccccc1 is ____. > 100 µM

Fill blank: measured TGI of the compound COc1cc2c3c(n(CCCN(C)C)c(=O)c2cc1OC)-c1cc2c(cc1C3=O)OCO2 is ____. 1.19 µM

Fill blank: measured TGI of the compound Cn1ccnc1Cn1cc(-c2cccc(-c3cn[nH]c3)c2)cn1 is ____. > 100 µM

Fill blank: measured TGI of the compound COC(O)C(=O)c1c2c(cc3c1CCC3)CCCC2 (stereo not drawn) is ____. 5.63 µM

Fill blank: measured TGI of the compound Cc1ccc(C2C(Cl)C(=O)N2n2cnc3ccccc3c2=O)cc1 (stereo not drawn) is ____. > 100 µM

Fill blank: measured TGI of the compound Cc1ccc2c3c4c(ccc13)C(C)(C)OC4=C(C(C)C)C2=O is ____. > 100 µM

Fill blank: measured TGI of the compound C[C@H](NS(=O)(=O)c1ccc(NC(=O)c2ccccc2)cc1)C(=O)O is ____. > 100 µM

Fill blank: measured TGI of the compound CN(C)c1ccc(/C=C(/C(=O)O)c2csc(-c3nc(/C(=C\c4ccc(N(C)C)cc4)C(=O)O)cs3)n2)cc1 is ____. > 100 µM

Fill blank: measured TGI of the compound CN(C)CC/C(=N\Nc1c(F)c(F)c(F)c(F)c1F)c1ccccc1 is ____. 70.5 µM
